assay: P-glycoprotein substrates identified in KB-8-5-11 adenocarcinoma cell line, qHTS therapeutic library screen (AID 1346987); conditions: KB-8-5-11 (P-gp overexpressing) viability, CellTiter-Glo, 72 h; series mostly up to 44.5 µM; note: nearly all actives have a fitted effect of over 65% in size
Results filed as inconclusive are left out. Activity calls are given as the source filed them. Calls come from the whole dose curve; as a rule, active = well fitted inhibition curve with a large enough effect; inconclusive = small, poorly fitted or top-dose-only effect; inactive = flat fitted curve, though single readings scatter.
Outcome codes: active, inactive

compound: N#Cc1cccc(CN2CCC(N(Cc3cccnc3)C(=O)Nc3ccccc3-c3ccccc3)CC2)c1
label: inactive
--
compound: O=C1NCCCc2c1oc1ccc(O)cc21
label: inactive
--
compound: CC(C)n1nc(Cc2cccc3ccccc23)c2c(N)ncnc21
label: active
--
compound: CCS(=O)(=O)N(Cc1cccnc1)c1cccc(-c2ccc(C#N)cc2)c1
label: active
--
compound: O=C(c1ccc(F)c(F)c1Nc1ccc(I)cc1F)N1CC(O)([C@@H]2CCCCN2)C1
label: active
--
compound: COc1cc(OC)c(/C=C2\C(=O)Nc3ccccc32)c(OC)c1
label: active
--
compound: O=C1NC(=O)/C(=C/c2ccc3nccc(-c4ccncc4)c3c2)S1
label: active
--
compound: C#Cc1cccc(Nc2ncnc3cc(OC)c(OC)cc23)c1
label: active
--
compound: Cc1[nH]c(/C=C2\C(=O)Nc3ccccc32)c(C)c1CCC(=O)O
label: inactive
--
compound: CCOC(=O)c1cc2ccc(O)cc2oc1=O
label: inactive
--
compound: O=C1c2ccccc2-c2nc3nnnn3nc21 (tested in a mixture with another compound)
label: active
--
compound: C[C@@H]1CCNC(=O)c2cc3ccc(C(=O)Nc4nc5ccccc5n4CCCN(C)C)cc3n21
label: inactive
--
compound: S=c1ssc2c1CCC2
label: inactive
--
compound: CCc1c(C(=O)NNC(=O)[C@@H](O)c2cc(F)cc(F)c2)ccc(O)c1C
label: inactive
--
compound: Cc1ccc(NS(=O)(=O)c2cc3c(cc2NCCO)NC(=O)CC3)cc1C
label: inactive
--
compound: C[C@@H](Oc1cc(-n2cnc3ccc(OC4CCN(C)CC4)cc32)sc1C(N)=O)c1ccccc1Cl
label: active
--
compound: COc1ccc(C(=O)Nc2sc3c(c2C(N)=O)CCCC3)cc1OC
label: inactive
--
compound: COc1cc2nc(N3CCN(C)CC3)nc(NC3CCN(Cc4ccccc4)CC3)c2cc1OC
label: active
--
compound: CC1CCC(n2c3cnccc3c3cnc(Nc4ccc5c(n4)CCN(C(=O)CO)C5)nc32)CC1 (stereo unspecified)
label: active
--
compound: Cc1ccc([N+](=O)[O-])cc1S(=O)(=O)N(C)/N=C\c1cnc2ccc(Br)cn12
label: active
--
compound: Cc1cc2nc(NCCCO)n(CC(=O)c3cc(C(C)(C)C)c(O)c(C(C)(C)C)c3)c2cc1C
label: active
--
compound: CCC(=O)Nc1cccc(Oc2nc(Nc3ccc(N4CCN(C)CC4)cc3OC)ncc2Cl)c1
label: active
--
compound: CC(C)N(CCCNC(=O)Nc1ccc(C(C)(C)C)cc1)C[C@H]1O[C@@H](n2cc(Br)c3c(N)ncnc32)[C@H](O)[C@@H]1O
label: inactive
--
compound: Nc1ncnc2c1nc(Cl)n2C1O[C@H](CO)[C@@H](O)[C@H]1O (stereo partly specified)
label: active
--
compound: O=C(NCCO)c1cc(C(=O)NCCO)cc(C(=O)NCCO)c1
label: inactive
--
compound: N#Cc1ccc(-c2c(-c3ncn[nH]3)sc(N3CCOCC3)c2C#N)c(F)c1
label: active
--
compound: C[C@]1(C(=O)Nc2ccc(F)nc2)CCCN1c1nc(Nc2cc(C3CC3)[nH]n2)c2cccn2n1
label: active
--
compound: COC(=O)c1ccc(=O)c2nc3/c(=C/O)c(O)cc(=O)c3[nH]c12
label: inactive
--
compound: N#C/C(=C(\N)Sc1ccc(N)cc1)c1ccccc1C(F)(F)F
label: inactive
--
compound: Clc1ccc2ncc(-c3cccc(NC4CCNC4)n3)n2c1 (stereo unspecified)
label: active
--
compound: Cc1nc(CNc2ncnc3ccc(-c4ccc5c(c4)OCO5)cc23)cs1
label: inactive
--
compound: CSC(Cc1ccc(Cl)cc1)C(=O)Nc1ccc(Cl)cc1C(=O)O (stereo unspecified)
label: inactive
--
compound: CN1CCN(Cc2ccc(Nc3ncc(Cl)c(Nc4ccccc4S(=O)(=O)N(C)C)n3)cc2)CC1
label: active
--
compound: CC(CCc1ccccn1)(CCc1ccccn1)C(=O)c1ccccc1
label: inactive
--
compound: C#Cc1cccc(Nc2ncnc3cc4c(cc23)OCCOCCOCCO4)c1
label: inactive
--
compound: Cc1nc2c(O)cccc2c(=O)[nH]1
label: inactive
--
compound: C[C@@H](Nc1cc(F)cc(F)c1)c1cc(C(=O)N(C)C)cc2c(=O)cc(N3CCOCC3)oc12
label: inactive
--
compound: Cn1cc(C2=C(c3cn(CCCSC(=N)N)c4ccccc34)C(=O)NC2=O)c2ccccc21
label: inactive
--
compound: CC(C)OC(=O)OCOP(=O)(COC(C)Cn1cnc2c(N)ncnc21)OCOC(=O)OC(C)C (stereo unspecified)
label: inactive
--
compound: O=C1NC(=O)C(c2c[nH]c3ccccc23)=C1c1c[nH]c2ccccc12
label: inactive
--
compound: CN1CCN(CCC=C2c3ccccc3Sc3ccc(S(=O)(=O)N(C)C)cc32)CC1
label: active

----------
assay: KB-3-1 Cancer Cell Toxicity qHTS against the NCATS CANVASS Library (AID 1347366); conditions: KB-3-1 viability, CellTiter-Glo luminescence, 72 h; series mostly up to 46.1 µM; note: nearly all actives have a fitted effect of over 75% in size
Results filed as inconclusive are left out. Activity calls are given as the source filed them. Calls follow the shape of the dose curve; as a rule, active = well fitted cell-killing curve with a large enough effect; inconclusive = small, poorly fitted or top-dose-only effect; inactive = flat fitted curve, though single readings scatter.
Outcome codes: t = active, f = inactive

compound: O=C1C[C@@H](c2ccc(O)c(-c3c(O)cc(O)c4c3O[C@H](c3ccc(O)cc3)CC4=O)c2)Oc2cc(O)cc(O)c21
label: f
--
compound: C1=C2CCCN[C@@H]2[C@@H]2CCN3CCCC[C@@H]3[C@H](C1)C2
label: f
--
compound: C[C@@H]1O[C@H](c2c(O)cc(O)c3c(=O)cc(-c4ccc(O)cc4)oc23)[C@H](O)[C@H](O)[C@H]1O
label: f
--
compound: OCc1ccc2ocnc2c1
label: f
--
compound: C=C[C@]1(C)CC[C@@H]([C@H](C)C(=O)/C=C/C(C)C)O1
label: f
--
compound: CC1(C)[C@H](Br)CC[C@]23C[C@]4(C)C(=O)CC12C[C@H]34
label: f
--
compound: O=C(OC1Cc2c(O)cc(O)cc2OC1c1cc(O)c(O)c(O)c1)c1cc(O)c(O)c(O)c1 (stereo not drawn)
label: f
--
compound: O=C1CC(c2cc(O)cc(O)c2)Oc2cc(O)ccc21 (stereo not drawn)
label: f
--
compound: CC1(C)CCC[C@]2(C)[C@@H]1CC[C@@]13C[C@@H](CC[C@H]12)C(C)(O)C3 (stereo partly drawn)
label: f
--
compound: CCCCCCCCC[C@@H]1C[C@@H]2CC[C@H]3[C@@H](C(=O)OCCCCN=C(N)N)[C@@H](C)N=C(N1)N23
label: t
--
compound: C/C1=C\CC(=O)/C=C/C=C\c2csc(n2)[C@@H](C)NC(=O)C[C@@](S)([C@@H](C)C(=O)O)CC1
label: f
--
compound: CC1C(=O)C23CCC1C[C@@]21O[C@H]2C(C)(C)C=CC(=O)[C@@]23COC1=O (stereo partly drawn)
label: f
--
compound: COc1ccc2cc(NC(=O)C3=NO[C@H]4[C@H](O)C=C[C@@H](Cl)[C@@]4(O)C3)c(=O)oc2c1OC
label: f
--
compound: O=C(O)CC1OC(=O)c2c(O)cccc21 (stereo not drawn)
label: f
--
compound: C=CC(C)(C)C(=O)[C@@H](C)[C@@H]1CC[C@](C)(C=C)O1
label: f
--
compound: CCCCCCCCCCCCCCC[C@H](O)C[C@@H](O)C[C@@H](O)C[C@@H](O)C[C@@H](O)C[C@H]1CC=CC(=O)O1
label: t
--
compound: CC(=O)O[C@H]1CC[C@@]2(C)C(CC[C@]3(C)C2CC=C2C4CC(C)(C)CC[C@]4(C)CC[C@]23C)C1(C)C (stereo partly drawn)
label: f
--
compound: CCC[C@@H](C)/C=C(\C)[C@H](O)[C@H](C)/C=C/CC[C@@H](O)[C@H](C)[C@H](O)[C@H](C)[C@H](O)[C@H](C)[C@H]1O[C@H]([C@H](C)C(=O)O)CC[C@@H]1C
label: t

----------
Test system: CP269
Experiment: qHTS profiling for inhibitors of Plasmodium falciparum proliferation (AID 504749); note: nearly all actives have a fitted effect of over 60% in size; note: potency is the fitted concentration of half-maximal effect
Details: P. falciparum in erythrocytes, SYBR Green DNA, 72 h; series mostly up to 28.7 µM
Procedure: NIH National Institute of Allergy and Infectious Diseases [NIAID] NIH Chemical Genomics Center [NCGC] […] Because mature erythrocytes lack DNA, only Plasmodium-derived DNA is detected. NCGC Assay Protocol Summary: The SYBR Green viability assay was adapted from a method described previously (Plouffe et al., 2008). […] The following morning, fluorescence intensity at 485(14) nm excitation and 535(25) nm emission wavelengths was measured on an EnVision (Perkin Elmer) plate reader. […]
Records with an inconclusive call do not appear. The source made the active and inactive calls. Calls follow the shape of the dose curve; as a rule, active = well fitted inhibition curve with a large enough effect; inconclusive = small, poorly fitted or top-dose-only effect; inactive = flat fitted curve, though single readings scatter.

molecule: O=C(CC1NCCC[C@H]1O)Cn1cnc2cc(Br)c(Cl)cc2c1=O (stereo not given in full)
Potency: 2690 nM (active)
--
molecule: O=C1c2cccc3c2[C@@H](CCC3)CN1[C@@H]1CN2CCC1CC2
Potency: inactive
--
molecule: CC(C)(O)c1ccccc1CC[C@H](SCC1(CC(=O)O)CC1)c1cccc(/C=C/c2ccc3ccc(Cl)cc3n2)c1
Potency: inactive
--
molecule: CC(C)C[C@@H](NC(=O)[C@H](Cc1ccccc1)NC(=O)c1cnccn1)B(O)O
Potency: 135 nM (active)
--
molecule: C/C=C1\C2C=C(C)CC1(N)c1ccc(=O)[nH]c1C2 (stereo not given)
Potency: inactive

Values compiled from PubChem BioAssay (NCATS).
